study-target: JAM3
experiment-notes: pooled miR-30 sensor sort-seq; sequence = guide strand; also: reference of the scale not given here
condition-details: shRNA
Response key: Criterion met means sensor-assay potency score (higher = more potent) >= -0.4; Criterion not met means sensor-assay potency score (higher = more potent) < -0.4.

The following sequences have reported results that may help.
ordered_residues=TTCATCTTGAATTTTCTTCCAC group="Criterion met"
ordered_residues=TAGCAGAGGTATGTGCACGTGC group="Criterion met"
ordered_residues=TTGTTGATGAAGTAGCCACGTC group="Criterion not met"
ordered_residues=TTCTGAATGAGTGTCTAGCTCT group="Criterion met"
ordered_residues=TTTCCTTGCGGTCATTTCGAGC group="Criterion not met"

Item TTGATGAAGTAGCCACGTCTGT with sensor-assay potency score (higher = more potent) of -0.4 or above?
Criterion not met

====

study-target: C9orf93
experiment-notes: pooled miR-30 sensor sort-seq; sequence = guide strand
condition-details: shRNA
Some sequences, each annotated with its measured sensor-assay potency score (higher = more potent).
Reply briefly: the number, and no unit.

Record excerpt, results attached:
ordered_residues=TTTAGTGTGAGAGTCTATCTTC numeric_value=0.39
ordered_residues=TTTGGTAAAGGTGTCTTCCTGA numeric_value=0.821
ordered_residues=TTGAATGGTCTCGTGATCCTAT numeric_value=0.611
ordered_residues=TTGTCTTTGCTTGAAGTTCTGA numeric_value=0.0324
ordered_residues=TAAACAACGCAACTGCTCCTTT numeric_value=0.206

I have this sequence here, TTGCACAGCAGTATCTTGCTCC , and I need its recorded sensor-assay potency score (higher = more potent).
0.17

I have this sequence here, TTGGTTGTTATTTCTAACTTTT , and I need its recorded sensor-assay potency score (higher = more potent).
-0.955

====

study-target: CXorf41
experiment-notes: pooled miR-30 sensor sort-seq; sequence = guide strand
condition-details: shRNA
Response key: met means sensor-assay potency score (higher = more potent) >= -1; not met means sensor-assay potency score (higher = more potent) < -1.

The following sequences have reported results that may help.
ordered_residues=TTATCAACAGCTTCTTCTGAGG group="not met"
ordered_residues=TAACTCTCTTTTCATAGTCATA group="not met"

Item TAACATCCCACATATCATCATA with sensor-assay potency score (higher = more potent) of -1 or above?
not met

Item TTCAATTATGTAATTGACCATG with sensor-assay potency score (higher = more potent) of -1 or above?
not met

Item TTCTTCAGGATTAAGTAGCTTA with sensor-assay potency score (higher = more potent) of -1 or above?
met

====

study-target: SLC22A17
experiment-notes: pooled miR-30 sensor sort-seq; sequence = guide strand
condition-details: shRNA
reported-property: sensor-assay potency score (higher = more potent)
Reply briefly: the number, and no unit.

ordered_residues=TTCACTATCAGCCACCGTGCGG study_target=SLC22A17 numeric_value=-0.928
ordered_residues=ATTATAGTCCCAATCCTTGAGG study_target=SLC22A17 numeric_value=-1.04
ordered_residues=TAACCCAGGAACAGGTAGCCGG study_target=SLC22A17 numeric_value=-1.09
ordered_residues=TCACTATCAGCCACCGTGCGGA study_target=SLC22A17 numeric_value=-0.275

The record that follows has no sensor-assay potency score (higher = more potent) shown yet.
I have this sequence here, TATTGAAACAGAATGATAGAGC , and I need its recorded sensor-assay potency score (higher = more potent).
-0.514

The measurements presented in this section are drawn from the OligoGym collection.
